Attribution: PubChem BioAssay AID2060895

Consider the following molecules; for each one, report its log10 of IC50.
- Test system: PDC 899932-113-R3-J6 complex spheroid viability
- experiment: Anticancer human tumor 899932-113-R3-J6-PDC patient-derived melanoma cell line growth inhibition [RAS]
- experimental-setup: curve of first compound; second compound 0.0316 µM
- Excerpt: RAS pathway inhibitors in Combinations in Complex Spheroids A high-throughput screen of multi-cell type tumor spheroids was designed to identify active combinations of RAS pathway inhibitors and targeted small molecules. Complex spheroids include a stromal component modeled by human endothelial cells (HUVEC) and fibroblasts modeled by human mesenchymal stem cells (MSCs). […] Compounds. […] If the clinical Cmax for an agent had not been determined, the highest concentration tested was 10 microM. […]
Friendly reminder: values = log10 of IC50, unit nM.

### Prompt I am curious: what log10 of IC50 value has been reported for CC(C)NCC(C(=O)N1CCN(c2ncnc3c2C(C)CC3O)CC1)c1ccc(Cl)cc1 (stereo not drawn) + C#Cc1c(F)ccc2cc(O)cc(-c3ncc4c(N5CC6CCC(C5)N6)nc(OCC56CCCN5CC(F)C6)nc4c3F)c12 ?
### Response 3.74

### Prompt Entry under review: CCc1c2c(nc3ccc(O)cc13)-c1cc3c(c(=O)n1C2)COC(=O)[C@]3(O)CC + C#Cc1c(F)ccc2cc(O)cc(-c3ncc4c(N5CC6CCC(C5)N6)nc(OCC56CCCN5CC(F)C6)nc4c3F)c12 . Reported log10 of IC50?
### Response 1.07

### Prompt So what's the measured log10 of IC50 for this one? CCN1CCN(Cc2ccc(Nc3ncc(F)c(-c4cc(F)c5nc(C)n(C(C)C)c5c4)n3)nc2)CC1 + C=CC(=O)N1CCN(c2nc(OCC3CCCN3C)nc3c(F)c(-c4nc(N)cc(C)c4C(F)(F)F)c(Cl)cc23)C(C)C1
### Response 2.65

### Prompt What does the data say about its log10 of IC50? Entry: CC1(C)CCC(Nc2ncc(C(F)(F)F)c(-c3c[nH]c4c(P(C)(C)=O)c(C#N)ccc34)n2)CN1 (stereo not drawn) + C#Cc1c(F)ccc2cc(O)cc(-c3ncc4c(N5CC6CCC(C5)N6)nc(OCC56CCCN5CC(F)C6)nc4c3F)c12
### Response 1.21

### Prompt Can you share its log10 of IC50? I mean this molecule: CCC(CC)c1cc(NC2CCC(N)C2)n2nccc2n1 (stereo not drawn) + C=CC(=O)N1CCN(c2nc(OCC3CCCN3C)nc3c(F)c(-c4nc(N)cc(C)c4C(F)(F)F)c(Cl)cc23)C(C)C1
### Response 3.23

### Prompt For CC(C)NCC(C(=O)N1CCN(c2ncnc3c2C(C)CC3O)CC1)c1ccc(Cl)cc1 (stereo not drawn) + C=CC(=O)N1CCN(c2nc(OCC3CCCN3C)nc3c(F)c(-c4nc(N)cc(C)c4C(F)(F)F)c(Cl)cc23)C(C)C1 , what is its reported log10 of IC50?
### Response 3.72
